assay.target: NACHT, LRR and PYD domains-containing protein 3 (Homo sapiens)
assay: Inhibition of NLRP3 in human PBMC assessed as reduction in LPS-induced IL-1beta level preincubated for 30 mins followed by LPS-stimulation and measured after 6 hrs by MSD assay
Type: cell-based
measure: AC50 (nM)
Write the value in nM as a bare number.

State the recorded AC50 for this entry: `CC(C)c1nn(CC(=O)Nc2ccc3nncn3c2)c(=O)cc1N1CC[C@@H]2C[C@@H]2C1`
500

Now the same for CC(C)c1nn(CC(=O)Nc2ccc3nncn3c2)c(=O)cc1N1CC2CC2C1 (stereo not given)
90

Request: `CC(C)c1nn(CC(=O)Nc2ccc3nncn3c2)c(=O)cc1NCC1CC1`
1530

Same thing, different compound: `CC(C)c1nn(CC(=O)Nc2ccc3nncn3c2)c(=O)cc1N1CCCCC1`
1230

Can you check `CC(C)c1nn(CC(=O)Nc2ccc3nncn3c2)c(=O)cc1N1CC[C@@H](F)C1` next?
530

# repeat for `CC(C)c1nn(CC(=O)Nc2ccc3nncn3c2)c(=O)cc1N1C2CCC1CC2`
1020

Entry to check: `CC(C)c1nn(CC(=O)Nc2ccc3nncn3c2)c(=O)cc1N1CC[C@H](C)C1`
420

Let us now turn to CC(C)c1nn(CC(=O)Nc2ccc3nncn3c2)c(=O)cc1N1CCCC1Cc1ccccn1 (stereo not given)
1280

And `CC(C)c1nn(CC(=O)Nc2ccc3nncn3c2)c(=O)cc1N1CCCC1` ?
330

====

assay.target: NACHT, LRR and PYD domains-containing protein 3 (Homo sapiens, UniProt Q96P20)
Sequence (Q96P20 whole entry, the tested form may be a part): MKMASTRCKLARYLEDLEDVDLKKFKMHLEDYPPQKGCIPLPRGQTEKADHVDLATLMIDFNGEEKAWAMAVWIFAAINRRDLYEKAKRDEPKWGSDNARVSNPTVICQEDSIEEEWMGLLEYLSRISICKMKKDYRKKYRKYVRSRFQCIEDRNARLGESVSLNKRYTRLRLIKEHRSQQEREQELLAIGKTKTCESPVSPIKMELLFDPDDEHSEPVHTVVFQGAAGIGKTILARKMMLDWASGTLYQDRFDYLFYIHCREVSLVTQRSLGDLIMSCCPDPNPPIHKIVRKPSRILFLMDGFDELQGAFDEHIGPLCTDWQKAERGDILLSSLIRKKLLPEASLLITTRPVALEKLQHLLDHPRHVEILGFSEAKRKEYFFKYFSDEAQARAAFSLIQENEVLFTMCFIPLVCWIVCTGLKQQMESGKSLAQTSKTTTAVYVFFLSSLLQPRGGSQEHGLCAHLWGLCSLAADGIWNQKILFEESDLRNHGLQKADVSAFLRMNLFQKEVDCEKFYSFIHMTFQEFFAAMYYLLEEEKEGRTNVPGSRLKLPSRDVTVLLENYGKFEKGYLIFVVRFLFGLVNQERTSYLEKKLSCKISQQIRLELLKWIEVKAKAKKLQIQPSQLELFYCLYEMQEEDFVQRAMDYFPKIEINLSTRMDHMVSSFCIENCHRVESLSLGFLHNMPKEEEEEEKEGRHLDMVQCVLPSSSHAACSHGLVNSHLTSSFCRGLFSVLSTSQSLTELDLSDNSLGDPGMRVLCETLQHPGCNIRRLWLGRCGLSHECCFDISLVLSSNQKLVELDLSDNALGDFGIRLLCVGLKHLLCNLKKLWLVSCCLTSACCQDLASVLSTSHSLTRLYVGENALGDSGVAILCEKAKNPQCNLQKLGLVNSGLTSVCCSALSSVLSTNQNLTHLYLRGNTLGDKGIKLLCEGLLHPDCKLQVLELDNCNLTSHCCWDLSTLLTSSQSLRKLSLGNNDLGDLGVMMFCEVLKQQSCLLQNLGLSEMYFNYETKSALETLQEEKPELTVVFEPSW
assay: Inhibition of NLRP3 in human PBMC assessed as reduction in LPS-induced TNF level preincubated for 30 mins followed by LPS-stimulation and measured after 6 hrs by MSD assay
Type: cell-based
For each entry below, report its AC50 value.

Reported AC50 for `CC(C)c1nn(CC(=O)Nc2ccc3nncn3c2)c(=O)cc1N1CCCC1` : what is it?
> 10 µM

Again, but for `CC(C)c1nn(CC(=O)Nc2ccc3nncn3c2)c(=O)cc1N1CC[C@H](C)C1`
> 20 µM

Cool, now `CC(C)c1nn(CC(=O)Nc2ccc3nncn3c2)c(=O)cc1N1CCCCC1`
> 20 µM

Try this molecule too: `CC(C)c1nn(CC(=O)Nc2ccc3nncn3c2)c(=O)cc1N1C2CCC1CC2`
> 10 µM

Consider next the molecule `CC(C)c1nn(CC(=O)Nc2ccc3nncn3c2)c(=O)cc1Nc1ccccc1` in the same way.
> 10 µM

CC(C)c1nn(CC(=O)Nc2ccc3nncn3c2)c(=O)cc1N1CC2CC2C1 (stereo not given) , same question.
> 10 µM

Then this molecule: `CC(C)c1nn(CC(=O)Nc2ccc3nncn3c2)c(=O)cc1N1CC[C@@H]2C[C@@H]2C1`
> 20 µM

CC(C)c1nn(CC(=O)Nc2ccc3nncn3c2)c(=O)cc1N1CCCC1Cc1ccccn1 (stereo not given) ?
> 20 µM

Also `CC(C)c1nn(CC(=O)Nc2ccc3nncn3c2)c(=O)cc1NCC1CC1` , if possible.
> 10 µM

And then `CC(C)c1nn(CC(=O)Nc2ccc3nncn3c2)c(=O)cc1N1CC[C@@H](F)C1` , what is it?
> 10 µM
